- tested-target: Leucine aminopeptidase (Plasmodium falciparum (isolate 3D7)) (UniProt Q8IL11)
- Sequence (Q8IL11 whole entry, looked up): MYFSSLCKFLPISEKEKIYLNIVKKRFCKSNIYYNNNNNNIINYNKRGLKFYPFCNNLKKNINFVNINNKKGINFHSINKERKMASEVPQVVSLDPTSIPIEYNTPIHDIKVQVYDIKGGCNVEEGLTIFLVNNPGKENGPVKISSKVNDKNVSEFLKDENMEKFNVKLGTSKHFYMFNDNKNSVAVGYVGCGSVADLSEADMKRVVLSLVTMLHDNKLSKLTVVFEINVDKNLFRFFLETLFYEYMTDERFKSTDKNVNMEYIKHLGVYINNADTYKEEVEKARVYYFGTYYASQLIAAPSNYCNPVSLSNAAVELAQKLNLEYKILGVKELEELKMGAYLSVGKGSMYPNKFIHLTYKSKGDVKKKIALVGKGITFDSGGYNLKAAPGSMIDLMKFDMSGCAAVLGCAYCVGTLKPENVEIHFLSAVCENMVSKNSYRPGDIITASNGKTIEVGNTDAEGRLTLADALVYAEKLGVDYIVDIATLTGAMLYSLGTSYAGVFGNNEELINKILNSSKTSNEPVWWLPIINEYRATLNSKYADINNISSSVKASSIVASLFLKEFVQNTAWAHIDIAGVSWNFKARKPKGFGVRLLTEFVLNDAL
- assay-notes: P. falciparum M17LAP inhibitors, primary screen, biochemical, fluorogenic H-Leu-NHMec substrate, 1536-well (AID 1619);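 note: plate controls were full reaction with DMSO carrier for no effect and no enzyme background for full effect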
- condition-label: recombinant M17LAP, H-Leu-NHMec fluorogenic kinetic assay; at 30 µM; hits give high values
Screen size: about 220,000 compounds; about 830 (0.38%) were called active. Not all results are given here. Results with a measured potency or affinity are listed apart.
reported-property: inhibition (%)
Numeric answer only, unit % assumed.

Problem: Give Leucine aminopeptidase (Plasmodium falciparum (isolate 3D7)) (UniProt Q8IL11) inhibition for CC1CCc2c(sc(NC(=O)c3ccccc3C(=O)O)c2C#N)C1 (stereo not drawn)
Result: 1.93

Problem: Enter reported inhibition observed with Leucine aminopeptidase (Plasmodium falciparum (isolate 3D7)) (UniProt Q8IL11) for O=C(N/N=C\c1ccc(-c2ccc([N+](=O)[O-])cc2)o1)C1COc2ccccc2O1 (stereo not drawn)
Result: 1.94

Problem: Query inhibition on Leucine aminopeptidase (Plasmodium falciparum (isolate 3D7)) (UniProt Q8IL11) for CCn1c(Cc2ccccc2)nnc1SCc1ccc([N+](=O)[O-])cc1
Result: -12

Problem: I'm curious: which inhibition was measured for CC(=O)Nc1sc2c(c1C#N)CCCCC2 tested on Leucine aminopeptidase (Plasmodium falciparum (isolate 3D7)) (UniProt Q8IL11)?
Result: -1.44

Problem: Give Leucine aminopeptidase (Plasmodium falciparum (isolate 3D7)) (UniProt Q8IL11) inhibition for CC(C)(C)c1ccc2c(c1)OC(C(=O)N/N=C\c1ccc(-c3cccc(C(=O)O)c3)o1)CO2 (stereo not drawn)
Result: 7.12

Problem: Field: inhibition (Leucine aminopeptidase (Plasmodium falciparum (isolate 3D7)) (UniProt Q8IL11)). Entry: C/C(=N\NC(=O)C1=NNC(=O)C1C)c1cccs1 (stereo not drawn)
Result: 24.2

Problem: Give inhibition (Leucine aminopeptidase (Plasmodium falciparum (isolate 3D7)) (UniProt Q8IL11)) of the following compound: COc1ccc2cc(C)c3nnc(SCC(=O)Nc4cc(OC)c(OC)cc4C(=O)O)n3c2c1
Result: 3.81

Problem: For Leucine aminopeptidase (Plasmodium falciparum (isolate 3D7)) (UniProt Q8IL11), provide inhibition of N#Cc1c(NC(=O)C2CCCO2)sc2c1CCCCCC2 (stereo not drawn) please.
Result: 13.1

Problem: Query the reported inhibition for Leucine aminopeptidase (Plasmodium falciparum (isolate 3D7)) (UniProt Q8IL11); item: C=CCOC(=O)c1c(C)nc2cc3c(cc2c1C)OCO3
Result: 9.48

Problem: Any idea what inhibition came out for N#Cc1c(NC(=O)CCC(=O)O)sc2c1CCCCC2 on Leucine aminopeptidase (Plasmodium falciparum (isolate 3D7)) (UniProt Q8IL11)?
Result: 34.4

Problem: # query: inhibition | item CC(=O)c1nc(N2C(=O)C3CC=C(C)CC3C2=O)sc1C (stereo not drawn) | system: Leucine aminopeptidase (Plasmodium falciparum (isolate 3D7)) (UniProt Q8IL11)
Result: 7.37

Problem: GET /values?readout=inhibition&system=Leucine aminopeptidase (Plasmodium falciparum (isolate 3D7)) (UniProt Q8IL11)&item= N#Cc1c(NC(=O)c2ccccc2)sc2c1CCCCC2
Result: 21.1

Problem: Any idea what inhibition came out for COc1ccc(CCNC(=O)C2CC(=O)N(c3ccc(Br)cc3)C2)cc1OC (stereo not drawn) on Leucine aminopeptidase (Plasmodium falciparum (isolate 3D7)) (UniProt Q8IL11)?
Result: 3.2

Problem: Request body: readout inhibition, system Leucine aminopeptidase (Plasmodium falciparum (isolate 3D7)) (UniProt Q8IL11), query CCc1cc2cc(OC)ccc2nc1SCC(=O)NNC(=O)c1ccco1 . Return the value.
Result: -4.39

Problem: Notebook entry, Leucine aminopeptidase (Plasmodium falciparum (isolate 3D7)) (UniProt Q8IL11) assay: inhibition of N#Cc1c(NC(=O)C2CCCO2)sc2c1CCCCC2 (stereo not drawn) = ?
Result: -2.74

Problem: Look up inhibition with Leucine aminopeptidase (Plasmodium falciparum (isolate 3D7)) (UniProt Q8IL11) for this compound: Cc1ccc2oc(=S)n(C)c2c1
Result: 3.68

Problem: Request: inhibition, test system Leucine aminopeptidase (Plasmodium falciparum (isolate 3D7)) (UniProt Q8IL11), entry CN1CCN(c2ccccc2NC(=O)c2cccc([N+](=O)[O-])c2)CC1
Result: -3.18

Problem: Query inhibition on Leucine aminopeptidase (Plasmodium falciparum (isolate 3D7)) (UniProt Q8IL11) for Cc1cccc2cc(CN(Cc3ccc(F)cc3)C(=O)N3CCOCC3)c(=O)[nH]c12
Result: 6.9

Problem: Provide the documented inhibition with Leucine aminopeptidase (Plasmodium falciparum (isolate 3D7)) (UniProt Q8IL11) as the system for CC1=NNC(=O)C1CC(=O)N/N=C/c1ccncc1 (stereo not drawn)
Result: -2.88

Problem: Param readout= inhibition; system= Leucine aminopeptidase (Plasmodium falciparum (isolate 3D7)) (UniProt Q8IL11); entry= COc1ccc(/C=C/C(=O)NCCC(=O)N2CCCN(C)CC2)cc1 ; returns value.
Result: 0.13

Problem: Any idea what inhibition came out for CCOC(=O)c1c(C)[nH]c(C)c1C(=O)COC(=O)c1ccc(O)cc1 on Leucine aminopeptidase (Plasmodium falciparum (isolate 3D7)) (UniProt Q8IL11)?
Result: 0.26

Problem: Entry Nc1nonc1C(=O)N/N=C/c1ccc(-c2cccc(C(=O)O)c2)o1 , system Leucine aminopeptidase (Plasmodium falciparum (isolate 3D7)) (UniProt Q8IL11): what inhibition was measured?
Result: 30.2

Problem: Leucine aminopeptidase (Plasmodium falciparum (isolate 3D7)) (UniProt Q8IL11) / inhibition / CC1CCc2sc(NC(=S)NC(=O)c3ccccc3)c(C#N)c2C1 (stereo not drawn) : value?
Result: -12
